Here, each record is paired with measured IC50 data.
target: hERG channel (Homo sapiens (Human), UniProt Q12809); assay: hERG electrophysiology, automated whole-cell patch clamp in CHO-K1 cells stably expressing hERG; type: cell-based; settings: Patchliner patch clamp
Sequence (Q12809 whole entry): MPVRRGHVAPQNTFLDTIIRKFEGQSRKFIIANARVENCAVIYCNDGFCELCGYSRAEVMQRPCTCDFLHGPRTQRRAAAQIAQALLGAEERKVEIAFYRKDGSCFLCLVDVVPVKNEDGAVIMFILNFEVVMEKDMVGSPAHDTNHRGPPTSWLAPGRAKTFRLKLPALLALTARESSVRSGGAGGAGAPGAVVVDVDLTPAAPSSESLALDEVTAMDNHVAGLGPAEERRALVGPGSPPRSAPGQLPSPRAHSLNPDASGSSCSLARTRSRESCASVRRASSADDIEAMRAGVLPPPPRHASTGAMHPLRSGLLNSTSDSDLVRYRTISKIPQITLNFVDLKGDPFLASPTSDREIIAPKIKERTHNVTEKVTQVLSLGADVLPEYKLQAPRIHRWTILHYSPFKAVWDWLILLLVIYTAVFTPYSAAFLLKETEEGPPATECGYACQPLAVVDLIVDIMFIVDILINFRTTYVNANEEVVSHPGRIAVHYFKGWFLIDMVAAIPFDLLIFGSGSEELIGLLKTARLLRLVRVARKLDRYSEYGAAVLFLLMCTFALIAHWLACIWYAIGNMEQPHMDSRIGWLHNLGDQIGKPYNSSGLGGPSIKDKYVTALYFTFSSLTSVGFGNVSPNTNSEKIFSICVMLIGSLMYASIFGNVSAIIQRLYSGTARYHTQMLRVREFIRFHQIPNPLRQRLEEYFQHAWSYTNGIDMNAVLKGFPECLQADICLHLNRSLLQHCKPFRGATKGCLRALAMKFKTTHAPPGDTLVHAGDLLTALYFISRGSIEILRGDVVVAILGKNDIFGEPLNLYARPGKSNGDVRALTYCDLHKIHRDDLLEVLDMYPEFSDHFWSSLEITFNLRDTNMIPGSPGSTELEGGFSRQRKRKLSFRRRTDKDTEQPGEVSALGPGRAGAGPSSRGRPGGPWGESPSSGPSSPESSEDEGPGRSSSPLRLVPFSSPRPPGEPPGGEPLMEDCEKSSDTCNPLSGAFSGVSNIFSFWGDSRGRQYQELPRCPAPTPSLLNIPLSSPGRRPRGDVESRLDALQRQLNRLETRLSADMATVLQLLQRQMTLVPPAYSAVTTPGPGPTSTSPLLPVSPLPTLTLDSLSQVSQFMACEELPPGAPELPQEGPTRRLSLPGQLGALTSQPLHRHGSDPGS
RECORDED ENDPOINT: IC50

> print(dat)
                                   compound                       experimental.system  recorded.endpoint  reported
1  CN(CCO)C(=O)CC1CN[C@@H](c2c(O)ccc(Cl)c2Cl)C1 (some centres unmarked)  hERG channel (Homo sapiens (Human), UniProt Q12809)               IC50   > 30 µM
2  O=C(CO)NC[C@@H]1CN[C@@H](c2c(O)ccc(Cl)c2Cl)C1  hERG channel (Homo sapiens (Human), UniProt Q12809)               IC50   > 30 µM
3  CN(C)C(=O)CC1CN[C@@H](c2c(O)ccc(Cl)c2Cl)C1 (some centres unmarked)  hERG channel (Homo sapiens (Human), UniProt Q12809)               IC50   > 30 µM
4  C[C@@H](O)CNC(=O)C[C@H]1CN[C@@H](c2c(O)ccc(Cl)c2Cl)C1  hERG channel (Homo sapiens (Human), UniProt Q12809)               IC50  > 100 µM
5  NC(=O)C[C@@H]1CC[C@H](c2c(O)ccc(Cl)c2Cl)N1  hERG channel (Homo sapiens (Human), UniProt Q12809)               IC50  > 100 µM
6  C[C@@H](C(N)=O)[C@H]1CN[C@@H](c2c(O)ccc(Cl)c2Cl)C1 (single isomer, unassigned)  hERG channel (Homo sapiens (Human), UniProt Q12809)               IC50  > 100 µM
7  CNC(=O)CC1CN[C@@H](c2c(O)ccc(Cl)c2Cl)C1 (some centres unmarked)  hERG channel (Homo sapiens (Human), UniProt Q12809)               IC50   > 30 µM
8  CC(C)(C(N)=O)[C@H]1CN[C@@H](c2c(O)ccc(Cl)c2Cl)C1  hERG channel (Homo sapiens (Human), UniProt Q12809)               IC50   > 30 µM

Cited source for all entries: patent US20240368078A1
